Data credit: the supplement of paper PMC11061612

System: Mo-T (Other Blood Carcinomas)
MEASUREMENT_NOTES: combination Emax (second highest fraction inhibited in the dose matrix, 72 h); higher = more inhibition; extreme values may be limits of the assay
Listed here are compounds together with their documented combination Emax.
Would you mind answering with just the numeric figure?

COMPOUND	TARGET_OR_SYSTEM	METRIC_NAME	RECORDED_RESULT
C=CCn1c(=O)c2cnc(Nc3ccc(N4CCN(C)CC4)cc3)nc2n1-c1cccc(C(C)(C)O)n1 [AZD1775] + C1CN(CCC1(C(=O)N[C@@H](CCO)C2=CC=C(C=C2)Cl)N)C3=NC=NC4=C3C=CN4 [Capivasertib] (first compound max 3 µM, partner max 3 µM)	Mo-T (Other Blood Carcinomas)	combination Emax	0.894

Query: Form field - read-out: combination Emax; system: Mo-T (Other Blood Carcinomas); submitted item: CN(CCO)CC[C@H](CSc1ccccc1)Nc1ccc(S(=O)(=O)NC(=O)c2ccc(N3CCC([C@@H](O)c4ccccc4-c4ccc(Cl)cc4)CC3)cc2)cc1S(=O)(=O)C(F)(F)F [AZD4320] + Nc1ccn([C@@H]2O[C@H](CO)[C@@H](O)C2(F)F)c(=O)n1 [Gemcitabine] (first compound max 1 µM, 7x7, partner max 0.3 µM)
Response: 0.997

Query: And COc1cccc(OCCCN)c1-c1cc(Nc2cnc(C#N)cn2)n[nH]1 [Prexasertib] + O=C(c1cc(Cc2n[nH]c(=O)c3ccccc23)ccc1F)N1CCN(C(=O)C2CC2)CC1 [Olaparib] (first compound max 1 µM, 7x7, partner max 10 µM) ?
Response: 0.52

* * *

System: Mo-T (Other Blood Carcinomas)
MEASUREMENT_NOTES: Bliss excess, mean over the matrix (fraction); higher = more synergy
Bliss excess reference
// no unit string in output, number only

Please review the entries below; each comes with its answer.
MOLECULE	Bliss excess
CCN(CCO)CCCOc1ccc2c(Nc3cc(CC(=O)Nc4cccc(F)c4)[nH]n3)ncnc2c1 [AZD2811] + C=CCn1c(=O)c2cnc(Nc3ccc(N4CCN(C)CC4)cc3)nc2n1-c1cccc(C(C)(C)O)n1 [AZD1775] (first compound max 1 µM, partner max 1 µM)	-0.0252
Cc1c2c(nn1C)CSCc1cc(n(C)n1)CSc1cc(c3ccccc3c1)OCCCc1c(C(=O)O)n(C)c3c-2c(Cl)ccc13 [AZD5991] + CCN(CCO)CCCOc1ccc2c(Nc3cc(CC(=O)Nc4cccc(F)c4)[nH]n3)ncnc2c1 [AZD2811] (first compound max 1 µM, 7x7, partner max 1 µM)	-0.0109
Cc1c2c(nn1C)CSCc1cc(n(C)n1)CSc1cc(c3ccccc3c1)OCCCc1c(C(=O)O)n(C)c3c-2c(Cl)ccc13 [AZD5991] + Cc1cc2ncnn2cc1Nc1ncc2c(n1)n(C1CCOCC1)c(=O)n2C [AZD7648] (first compound max 1 µM, 7x7, partner max 10 µM)	-0.08
C=CCn1c(=O)c2cnc(Nc3ccc(N4CCN(C)CC4)cc3)nc2n1-c1cccc(C(C)(C)O)n1 [AZD1775] + C[C@@H]1COCCN1C2=NC(=NC(=C2)C3(CC3)[S@](=N)(=O)C)C4=C5C=CNC5=NC=C4 [AZD6738] (first compound max 1 µM, partner max 10 µM)	-0.0271
C[C@@H](Oc1cc(-c2cnn(C3CCNCC3)c2)cnc1N)c1c(Cl)ccc(F)c1Cl [Crizotinib] + CC1=C(C(=CC=C1)Cl)NC(=O)C2=CN=C(S2)NC3=CC(=NC(=N3)C)N4CCN(CC4)CCO [Dasatinib] (first compound max 10 µM, 7x7, partner max 2 µM)	-0.0588

Query: Quick one: Bliss excess for COc1cccc(OCCCN)c1-c1cc(Nc2cnc(C#N)cn2)n[nH]1 [Prexasertib] + CN(C)CCCOc1ccc(-c2ccc3ncc4c(c3c2)n(C2CCOCC2)c(=O)n4C)cn1 [AZD0156] (first compound max 1 µM, 7x7, partner max 1 µM) ?
Response: 0.0105

Query: Let us now turn to CC(=O)c1c(C)c2cnc(Nc3ccc(N4CCNCC4)cn3)nc2n(C2CCCC2)c1=O [Palbociclib] + Cc1c2c(nn1C)CSCc1cc(n(C)n1)CSc1cc(c3ccccc3c1)OCCCc1c(C(=O)O)n(C)c3c-2c(Cl)ccc13 [AZD5991] (first compound max 10 µM, 7x7, partner max 1 µM)
Response: -0.0208

Query: What do you get for O=C(c1cc(Cc2n[nH]c(=O)c3ccccc23)ccc1F)N1CCN(C(=O)C2CC2)CC1 [Olaparib] + Cc1c2c(nn1C)CSCc1cc(n(C)n1)CSc1cc(c3ccccc3c1)OCCCc1c(C(=O)O)n(C)c3c-2c(Cl)ccc13 [AZD5991] (first compound max 10 µM, 7x7, partner max 1 µM) ?
Response: -0.0492

Query: Quick one: Cc1cc2ncnn2cc1Nc1ncc2c(n1)n(C1CCOCC1)c(=O)n2C [AZD7648] + CCN(CCO)CCCOc1ccc2c(Nc3cc(CC(=O)Nc4cccc(F)c4)[nH]n3)ncnc2c1 [AZD2811] (first compound max 10 µM, 7x7, partner max 1 µM)
Response: -0.0582

Query: And then N#Cc1cnc(Nc2cc(NC[C@H]3CNCCO3)c(C(F)(F)F)cn2)cn1 [SRA737] + O=c1[nH]cc(F)c(=O)[nH]1 [5-Fluorouracil] (first compound max 10 µM, 7x7, partner max 20 µM) , what is it?
Response: 0.0056

Query: How about this molecule: C[C@@H]1COCCN1c1cc(C2([S@](C)(=N)=O)CC2)nc(-c2ccnc3[nH]ccc23)n1 [AZD6738] + O=C(c1cc(Cc2n[nH]c(=O)c3ccccc23)ccc1F)N1CCN(C(=O)C2CC2)CC1 [Olaparib] (first compound max 10 µM, 7x7, partner max 10 µM)
Response: 0.0311

Query: What do we get for CN(CCO)CC[C@H](CSc1ccccc1)Nc1ccc(S(=O)(=O)NC(=O)c2ccc(N3CCC([C@@H](O)c4ccccc4-c4ccc(Cl)cc4)CC3)cc2)cc1S(=O)(=O)C(F)(F)F [AZD4320] + CN(C)CCCOc1ccc(-c2ccc3ncc4c(c3c2)n(C2CCOCC2)c(=O)n4C)cn1 [AZD0156] (first compound max 1 µM, 7x7, partner max 1 µM) ?
Response: -0.0982

Query: // repeat for COc1nnc2ccc(N3CCC(c4ccc(OCCN5CCN(C)C(=O)[C@H]5C)cc4)CC3)nn12 [AZD5153] + C=CCn1c(=O)c2cnc(Nc3ccc(N4CCN(C)CC4)cc3)nc2n1-c1cccc(C(C)(C)O)n1 [AZD1775] (first compound max 1 µM, partner max 1 µM) and report
Response: -0.0532

Query: Check CC1(C)CCC(CN2CCN(c3ccc(C(=O)NS(=O)(=O)c4ccc(NCC5CCOCC5)c([N+](=O)[O-])c4)c(Oc4cnc5[nH]ccc5c4)c3)CC2)=C(c2ccc(Cl)cc2)C1 [Venetoclax] + Cn1cnc2c(F)c(Nc3ccc(Br)cc3Cl)c(C(=O)NOCCO)cc21 [Selumetinib] (first compound max 1 µM, 7x7, partner max 3 µM) too.
Response: 0.021

* * *

Each entry below carries its reported combination Emax.
Test system: Ca-Ski (Cervical Carcinoma)
MEASUREMENT_NOTES: combination Emax (second highest fraction inhibited in the dose matrix, 72 h); higher = more inhibition; extreme values may be limits of the assay

Query: So what's the measured combination Emax for this one? CCN(CCO)CCCOc1ccc2c(Nc3cc(CC(=O)Nc4cccc(F)c4)[nH]n3)ncnc2c1 [AZD2811] + O=C(c1cc(Cc2n[nH]c(=O)c3ccccc23)ccc1F)N1CCN(C(=O)C2CC2)CC1 [Olaparib] (first compound max 1 µM, 7x7, partner max 10 µM)
Response: 0.289

Query: One more molecule: N#Cc1cnc(Nc2cc(NC[C@H]3CNCCO3)c(C(F)(F)F)cn2)cn1 [SRA737] + C=CCn1c(=O)c2cnc(Nc3ccc(N4CCN(C)CC4)cc3)nc2n1-c1cccc(C(C)(C)O)n1 [AZD1775] (first compound max 10 µM, partner max 1 µM)
Response: 0.846

* * *

Tested on: NCI-H1838 (Lung Adenocarcinoma)
MEASUREMENT_NOTES: Bliss excess, mean over the matrix (fraction); higher = more synergy
// Bliss excess lookup, one value per entry
Please give the numeric answer without any surrounding text.

Query: Bench note: what Bliss excess did CN(C)CCCOc1ccc(-c2ccc3ncc4c(c3c2)n(C2CCOCC2)c(=O)n4C)cn1 [AZD0156] + C[C@@H]1COCCN1C2=NC(=NC(=C2)C3(CC3)[S@](=N)(=O)C)C4=C5C=CNC5=NC=C4 [AZD6738] (first compound max 1 µM, 7x7, partner max 10 µM) show?
Response: -0.0082

Query: Field entry: CC1(C)CCC(CN2CCN(c3ccc(C(=O)NS(=O)(=O)c4ccc(NCC5CCOCC5)c([N+](=O)[O-])c4)c(Oc4cnc5[nH]ccc5c4)c3)CC2)=C(c2ccc(Cl)cc2)C1 [Venetoclax] + C1CN(CCC1(C(=O)N[C@@H](CCO)C2=CC=C(C=C2)Cl)N)C3=NC=NC4=C3C=CN4 [Capivasertib] (first compound max 1 µM, 7x7, partner max 3 µM)
Response: -0.0097

Query: Follow-up item: C[C@@H](c1ccc2nccn2c1)n1nnc2ncc(-c3cnn(C)c3)nc21 [Savolitinib] + CC1(C)CCC(CN2CCN(c3ccc(C(=O)NS(=O)(=O)c4ccc(NCC5CCOCC5)c([N+](=O)[O-])c4)c(Oc4cnc5[nH]ccc5c4)c3)CC2)=C(c2ccc(Cl)cc2)C1 [Venetoclax] (first compound max 1 µM, 7x7, partner max 1 µM)
Response: -0.049

Query: Next up: Cc1cc2ncnn2cc1Nc1ncc2c(n1)n(C1CCOCC1)c(=O)n2C [AZD7648] + O=C(c1cc(Cc2n[nH]c(=O)c3ccccc23)ccc1F)N1CCN(C(=O)C2CC2)CC1 [Olaparib] (first compound max 10 µM, 7x7, partner max 10 µM)
Response: -0.0808
